These measurements were taken from patent US20030186281A1.

Test system: tet operator sequence
Test: β-galactosidase activity of a tetracycline-regulated promoter in transformed E. coli with revTetR, in the presence and absence of anhydrotetracycline (atc)
Assay type: cell-based, Escherichia coli
Settings: RevTetR isolate cultured in the presence of anhydrotetracycline (ATC)
property_label: β-Galactosidase Activity, Cultured With ATC
Form: value (number only, do not type unit).

Query: Name the reported β-Galactosidase Activity, Cultured With ATC value associated with the molecule TetRrev96/99-9: revTetR(BD) G96H V99N (protein, Modified tetracycline repressor, revTetR(BD) G96H V99N) MSRLDKSKVINSALELLNEVGIEGLTTRKLAQKLGVEQPTLYWHVKNKRALLDALAVEILARHHDYSLPAAGESWQSFLRNNAMSFRRALLRYRDHAKNHLGTRPDEKQYDTVETQLRFMTENGFSLRDGLYAISAVSHFTLGAVLEQQEHTAALTDRPAAPDENLPPLLREALQIMDSDDGEQAFLHGLESLIRGFEVQLTALLQIV
Response: 14.528

Query: β-Galactosidase Activity, Cultured With ATC; subject: TetRrevAF4/5: revTetR(BD) E15G L16L D95A V99G (protein, Modified tetracycline repressor, revTetR(BD) E15G L16L D95A V99G) MSRLDKSKVINSALGLLNEVGIEGLTTRKLAQKLGVEQPTLYWHVKNKRALLDALAVEILARHHDYSLPAAGESWQSFLRNNAMSFRRALLRYRAGAKGHLGTRPDEKQYDTVETQLRFMTENGFSLRDGLYAISAVSHFTLGAVLEQQEHTAALTDRPAAPDENLPPLLREALQIMDSDDGEQAFLHGLESLIRGFEVQLTALLQIV
Response: 0.9927
